Across several studies, molecules have been characterized by their pIC50 on Cyclin-dependent kinase 4 (Homo sapiens); a selection follows.
pIC50: −log10 of the molar value.

Known results for molecules:
1) CC(C)N1CCOc2c(F)cc(-c3nc(Nc4ccc(S(=O)(=O)NC5CCNCC5)cc4)ncc3F)cc21 :: 8.05
2) CN(C)C(=O)c1cc2cnc(Nc3ccc(Sc4cnc(N5CCC6(CC5)Cc5ccccc5[C@H]6N)cn4)c(Cl)c3)nc2n1C1CCCC1 :: < 6.00
3) CC(C)c1c2c(nn1C)Cc1cnc(Nc3ccc(N4CCNCC4)cn3)nc1-2 :: 8.00

# batch size: 3; output pIC50 per entry
1. OCCCCNc1cncc(-c2cncc(Nc3cccc(Cl)c3)n2)c1
2. CC(C)N1CCOc2c(F)cc(-c3nc(Nc4cnn(C5CCNCC5)c4)ncc3F)cc21
3. Cc1c(C(F)(F)F)c2cc(-c3ccnc(Nc4ccc(CN5CCN(C(C)C)CC5)cn4)n3)ccc2n1C

// result
1: < 5.00; 2: 8.49; 3: ≥ 7.70

# batch size: 2; output pIC50 per entry
1. CC(C)c1cn(C2CCCC2)c2nc(Nc3ccc(N4CCNCC4)cn3)ncc12
2. CCN1CCN(Cc2ccc(Nc3ncc4c(n3)N(c3ncccn3)C(=O)C(C)(C)O4)nc2)CC1

// result
> 5.00
≥ 7.70

---

Across several studies, molecules have been characterized by their IC50 on Cyclin-dependent kinase 4 (Homo sapiens, UniProt P11802); a selection follows.

1) Cc1cnc(Nc2cccc(S(N)(=O)=O)c2)nc1-c1cccc2[nH]ccc12 :: < 5000 nM

# batch size: 3; output IC50 per entry
1. CC(=O)N1CCN(c2ccc(Nc3ncc4ccn(C(C)CN(C)C)c4n3)cc2)CC1 (centres unmarked)
2. CC(C)n1c(C2CCCC2)cc2cc(-c3nc(Nc4ccc(N5CCN(C6CCC6)CC5)cn4)ncc3F)ccc21
3. Cc1nc2cnc(-c3nc(Nc4ccc(N5CCN(C)CC5)cn4)ncc3F)nc2n1C(C)C

// result
1. < 10000 nM
2. ≤ 20 nM
3. ≤ 20 nM

# batch size: 8; output IC50 per entry
1. CS(=O)(=O)c1cccc(Nc2nccc(-c3cccc4[nH]ccc34)n2)c1
2. CCN1CCN(Cc2ccc(Nc3ncc(F)c(-c4ccc5nnc(C(F)(F)F)n5c4)n3)nc2)CC1
3. COc1cccc(-c2cnc(Nc3ccc(N4CCN(C)CC4)c(Cl)c3)o2)c1
4. Cc1nc2c(F)cc(-c3nc(Nc4ccc(Sc5cnc(N6CCC7(CC6)Cc6ccccc6[C@H]7N)cn5)c(Cl)n4)ncc3F)cc2n1C(C)C
5. COc1cccc(-c2cnc(Nc3ccc(CN(C)C)cc3)o2)c1
6. c1cc(OC2CCCC2)cc(-c2cnc(Nc3ccc(N4CCSCC4)cc3)o2)c1
7. c1cc(Nc2ncc3c(n2)-c2c(nc(C4CC4)n2C2CCCC2)C3)ncc1N1CCNCC1
8. COc1ncccc1-c1ccnc(Nc2cccc(C#N)c2)n1

// result
< 5000 nM
≤ 20 nM
< 100 nM
> 1000 nM
< 100 nM
< 1000 nM
33 nM
15000 to 50000 nM

# batch size: 2; output IC50 per entry
1. CCN(CC)Cc1ccc(Nc2ncc(-c3cccc(OC)c3)o2)cc1
2. CC(=O)NCC(C)(C)CNc1ncccc1-c1ccnc(Nc2cccc(Cl)c2)n1

// result
1: < 100 nM; 2: 15000 to 50000 nM

---

Across several studies, molecules have been characterized by their pIC50 on Cyclin-dependent kinase 4 (Homo sapiens); a selection follows.
pIC50: −log10 of the molar value.

1. CCN1CCN(Cc2ccc(Nc3ncc(F)c(-c4ncnc5c4cc(C)n5C4CCCC4)n3)nc2)CC1 :: ≥ 7.70
2. O=C1N(C2CCCC2)c2nc(Nc3ccc(N4CCNCC4)cn3)ncc2OC12CCCC2 :: ≥ 7.70

# batch size: 5; output pIC50 per entry
1. CCN1CCN(c2ccc(Nc3ncc(-c4ccccc4)o3)cc2)CC1
2. CN(C)C(=O)c1cc2cnc(Sc3cnc(N4CCC(C)(N)CC4)cn3)cc2n1C1CCCC1
3. CN1CCN(c2ccc(Nc3ncc(F)c(-c4ncc5nc(C(=O)N(C)C)n(C6CCCC6)c5n4)n3)nc2)CC1
4. CCN1CCN(c2ccc(Nc3ncc4c(n3)-c3c(cnn3C(C)C)CC4)nc2)CC1
5. CC(C)n1ccc2cc(-c3nc(Nc4ccc(N5CCNCC5)cn4)ncc3F)ccc21

// result
["> 6.00", "< 6.00", "≥ 7.70", 8.10, "≥ 7.70"]
